B1: CPEB3 Ribozyme (parent)
chain: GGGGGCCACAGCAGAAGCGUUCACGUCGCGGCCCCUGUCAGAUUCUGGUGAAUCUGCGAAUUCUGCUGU

variants of: B1; assay: self-cleavage, relative activity (ratio to wild type); higher = more cleavage; co-transcriptional
measured quantity: self-cleavage

{"variant code": "U20A U61A", "observed result": 0.123}
{"variant code": "A13C G17C", "observed result": 0.122}
{"variant code": "U26A C27U", "observed result": 0.429}
{"variant code": "G11C U46C", "observed result": 0.787}
{"variant code": "C22G A59C", "observed result": 0.151}
{"variant code": "C6A U64A", "observed result": 0.307}
{"variant code": "C39A A40G", "observed result": 0.841}
{"variant code": "G25U U26C", "observed result": 0.631}
{"variant code": "C12A A59C", "observed result": 0.347}
{"variant code": "C29U U61G", "observed result": 0.218}
{"variant code": "C18U G19U", "observed result": 0.142}
{"variant code": "C22A C29A", "observed result": 0.169}
{"variant code": "C39A U44G", "observed result": 0.562}
{"variant code": "G41A C57G", "observed result": 0.299}
{"variant code": "A15C G50A", "observed result": 0.933}
{"variant code": "G31U G48A", "observed result": 0.756}
{"variant code": "G2C U55G", "observed result": 0.0548}
{"variant code": "C24G G25A", "observed result": 0.22}
{"variant code": "G17U C29U", "observed result": 0.268}
{"variant code": "G4A G37U", "observed result": 0.154}
{"variant code": "U38G C57A", "observed result": 0.161}
{"variant code": "C18G U64C", "observed result": 0.1}
